target: BTK(h) (Homo sapiens); construct: purchased Upstate Biotechnology (Dundee, UK), KinaseProfiler service; experiment: Upstate KinaseProfiler enzyme assay, BTK; assay type: biochemical; conditions: 500 nM compound; read-out: Percent inhibition at 500 nM BTK(h)
Sequence (Q06187 whole entry): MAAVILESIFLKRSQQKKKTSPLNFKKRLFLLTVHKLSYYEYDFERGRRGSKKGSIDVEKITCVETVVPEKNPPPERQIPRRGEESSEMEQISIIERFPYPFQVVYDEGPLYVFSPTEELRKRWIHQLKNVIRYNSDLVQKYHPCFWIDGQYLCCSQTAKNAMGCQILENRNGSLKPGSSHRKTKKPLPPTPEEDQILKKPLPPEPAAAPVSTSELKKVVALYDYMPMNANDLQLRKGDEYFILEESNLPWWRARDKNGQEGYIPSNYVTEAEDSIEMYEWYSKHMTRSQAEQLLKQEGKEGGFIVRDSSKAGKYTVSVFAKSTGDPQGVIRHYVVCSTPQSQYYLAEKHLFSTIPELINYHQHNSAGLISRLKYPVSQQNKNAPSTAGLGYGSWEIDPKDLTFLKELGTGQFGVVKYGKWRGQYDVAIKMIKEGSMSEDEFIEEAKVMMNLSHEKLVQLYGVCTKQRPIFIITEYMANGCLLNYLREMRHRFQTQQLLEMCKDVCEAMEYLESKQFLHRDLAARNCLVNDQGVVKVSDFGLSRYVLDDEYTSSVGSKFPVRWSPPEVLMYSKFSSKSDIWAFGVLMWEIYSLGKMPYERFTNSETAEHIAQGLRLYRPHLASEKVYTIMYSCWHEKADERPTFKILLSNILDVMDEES
Tick Satisfied if inhibition at 0.5 µM is 90% or greater. Tick Not satisfied if inhibition at 0.5 µM is less than 90%.

Q: Hi team, for C=CC(=O)Nc1ccc(Sc2nc(Nc3cccc(N4CCOCC4)c3)ncc2F)cc1 [Compound 267] , is the recorded inhibition at 0.5 µM at or above 90%?
Result: Satisfied

Q: Next entry: N#Cc1ncn(Cc2ccc(Sc3ccnc(Nc4ccc(N5CCOCC5)cc4)n3)cc2)c1C#N [Compound 201]
Result: Satisfied

Q: Query C=CC(=O)Nc1ccc(Sc2ccnc(Nc3cccc(OC)c3)n2)cc1 [Compound 105] next
Result: Satisfied

Q: What do we get for C=CC(=O)Nc1ccc(Sc2nc(Nc3cccc(CO)c3)ncc2C)cc1 [Compound 280] ?
Result: Satisfied

Q: Try this compound too: CC#CC(=O)Nc1ccc(Sc2ccnc(Nc3ccc(N4CCOCC4)cc3)n2)cc1 [Compound 104]
Result: Not satisfied

Q: Entry O=C(/C=C/Cl)Nc1cccc(Sc2ccnc(Nc3ccc(N4CCOCC4)cc3)n2)c1 [Compound 340] please
Result: Satisfied

Q: How about this compound: C=CC(=O)Nc1ccc(Sc2nc(Nc3ccc(N4CCN(C)CC4)cc3)ncc2C)cc1 [Compound 239]
Result: Satisfied

Q: Now the compound N#Cc1nnnn1Cc1ccc(Sc2ccnc(Nc3ccc(N4CCOCC4)cc3)n2)cc1 [Compound 155]
Result: Not satisfied

Q: Repeat for the following compound: C=CC(=O)Nc1ccc(Sc2nc(Nc3cccc(NS(C)(=O)=O)c3)ncc2C)cc1 [Compound 288]
Result: Satisfied

Q: Next: C=CC(=O)Nc1ccc(Sc2nc(Nc3ccc(OCCCN(CC)CC)cc3)ncc2C)cc1 [Compound 291]
Result: Satisfied

Q: Queued: C=CC(=O)Nc1ccc(Sc2nc(Nc3ccc(OCCN4CCOCC4)cc3)ncc2C)cc1 [Compound 290]
Result: Satisfied

----------
For each entry below, report its IC50 value.
target: human JAK3 (Homo sapiens); construct: The kinase domain of human JAK3 was amplified; GST (N); made in house; host or cells: Sf9 insect cells (baculovirus); assay: Alphascreen tyrosine kinase enzyme assay, JAK3 kinase domain; format: biochemical; details: read-out: JAK3 IC50_nM
Sequence (P52333 822-1111 limits assumed): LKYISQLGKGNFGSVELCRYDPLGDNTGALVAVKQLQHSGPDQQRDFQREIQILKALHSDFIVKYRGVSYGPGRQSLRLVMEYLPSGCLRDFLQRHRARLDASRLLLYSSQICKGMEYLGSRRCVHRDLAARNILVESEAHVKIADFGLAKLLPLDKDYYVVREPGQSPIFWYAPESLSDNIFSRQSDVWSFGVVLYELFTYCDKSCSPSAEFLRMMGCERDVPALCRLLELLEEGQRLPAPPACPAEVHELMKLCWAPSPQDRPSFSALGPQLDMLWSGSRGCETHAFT

Q: Sample "Cc1cnc(Nc2ccc(O)cc2)nc1Sc1ccc(N)cc1" — what was its IC50?
Result: < 500 nM

Q: What do you get for "Cc1cnc(Nc2ccc(N3CCOCC3)cc2)nc1Sc1ccc(NC(=O)CSCC(=O)O)cc1" ?
Result: < 100 nM

Q: Record: "C=CC(=O)Nc1ccc(Sc2nc(Nc3ccc(NS(C)(=O)=O)c(OC)c3)ncc2C)cc1"
Result: < 100 nM

Q: And the next one, "O=C(/C=C\Cl)Nc1ccc(Sc2ccnc(Nc3ccc(N4CCOCC4)cc3)n2)cc1" ?
Result: < 100 nM

Q: What about "C=CC(=O)Nc1ccc(Sc2nc(Nc3ccc(N4CCOCC4)cc3)ncc2F)cc1" ?
Result: < 100 nM

Q: One more molecule: "C=CC(=O)Nc1ccc(Sc2nc(Nc3ccc(N4CCN(C)CC4)cc3)ncc2C)cc1"
Result: < 100 nM

Q: What do you get for "CCOC(=O)/C=C/C(=O)Nc1ccc(Sc2nc(Nc3ccc(N4CCOCC4)cc3)ncc2C)cc1" ?
Result: < 100 nM

Q: Follow-up item: "COc1ccc(Nc2ncc(C)c(Sc3ccc(N)cc3)n2)cc1OC"
Result: < 500 nM

Q: Also need "Cc1cnc(Nc2ccc(N3CCOCC3)cc2)nc1Sc1ccc(NC(=O)COCC(=O)O)cc1" , thanks.
Result: < 100 nM

Q: Same again, this time with "CSc1nc(Nc2ccc(N3CCOCC3)cc2)ncc1C"
Result: < 1000 nM

Q: Likewise for "C=CC(=O)N1CCCc2cc(Sc3nc(Nc4ccc(N5CCOCC5)cc4)ncc3C)ccc21" ?
Result: < 100 nM
